Tgt: CaBzz1-D1
Test Name: SPOT peptide array binding signal intensity (averaged, normalized) (arbitrary units (background-subtracted, floor 0; scale differs between SH3 domains)); higher = stronger binding of the SH3 domain to the peptide
Class TRUE: SPOT peptide array binding signal intensity at least 200. Class FALSE: SPOT peptide array binding signal intensity below 200.

VAPPPLPNRQLPNLD :: FALSE
RVTRKRPREPKSTND :: FALSE
VRVKKRPLIRPLNSS :: FALSE
KNRKNLPTIPIRLSG :: TRUE

QUERY: Check the entry FLIKFTPKFPQSIDH : does SPOT peptide array binding signal intensity equal or exceed 200?
RESULT: TRUE

QUERY: Is reported SPOT peptide array binding signal intensity greater than or equal to 200 here: KDKKTKPTPPPKPSH
RESULT: TRUE

QUERY: Would you say QQEQNTPPLPPKPKS shows SPOT peptide array binding signal intensity at minimum 200?
RESULT: FALSE

QUERY: Entry LPPPPPPPPPPPLPQ : is its SPOT peptide array binding signal intensity no less than 200?
RESULT: TRUE

QUERY: Check this binder for SPOT peptide array binding signal intensity at or above 200: VPPVPLPFGIPPFPM
RESULT: FALSE

QUERY: Decide: SPOT peptide array binding signal intensity of QRKSLRRPTLSKPAV >= 200?
RESULT: FALSE

QUERY: hey, is SPOT peptide array binding signal intensity for this one >= 200? MKRSRPSRSIPYTTP
RESULT: FALSE

QUERY: Does the binder ANNQGPPNLPARDKS have recorded SPOT peptide array binding signal intensity that is 200 or more?
RESULT: FALSE

QUERY: Entry RRSKSLPITPKSIFN : is its SPOT peptide array binding signal intensity no less than 200?
RESULT: FALSE

QUERY: Threshold query (SPOT peptide array binding signal intensity >= 200) on APKREAPKPPANTSP
RESULT: TRUE

QUERY: Does FYHRPAPKPPVTKKV have a reported SPOT peptide array binding signal intensity of at least 200?
RESULT: TRUE
